# Lookup of reported Melting temperature (Tm) shift keyed by entry
experimental.system: STK3 Catalytic domain+SARAH (Homo sapiens, UniProt Q13188)
Construct: for 8, we also made a longer version containing one or more additional domains; His-tag; made in house; host or cells: Escherichia coli
Sequence (Q13188 whole entry, the tested form may be a part): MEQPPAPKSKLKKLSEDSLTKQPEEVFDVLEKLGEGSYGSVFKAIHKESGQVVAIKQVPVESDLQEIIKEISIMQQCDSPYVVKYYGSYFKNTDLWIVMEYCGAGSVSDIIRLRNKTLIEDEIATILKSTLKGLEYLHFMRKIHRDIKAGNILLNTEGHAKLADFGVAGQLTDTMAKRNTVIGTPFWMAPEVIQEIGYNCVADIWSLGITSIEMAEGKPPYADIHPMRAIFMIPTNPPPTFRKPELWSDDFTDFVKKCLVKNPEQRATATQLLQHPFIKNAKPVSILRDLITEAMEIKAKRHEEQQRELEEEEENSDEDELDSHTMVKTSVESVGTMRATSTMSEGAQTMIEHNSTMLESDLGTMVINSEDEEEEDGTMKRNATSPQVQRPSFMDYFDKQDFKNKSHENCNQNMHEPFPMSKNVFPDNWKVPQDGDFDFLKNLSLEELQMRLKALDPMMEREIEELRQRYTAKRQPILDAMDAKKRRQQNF
method.notes: Differential Scanning Fluorimetry (DSF) Tm shift
Format: binding
condition.description: 2 µM protein, 10 µM inhibitor, average of 3 experiments, each in duplicate

compound	Melting temperature (Tm) shift [degrees Celcius]
O=C(Nc1cccc(Nc2nccc(Nc3cccc(C(F)(F)F)c3)n2)c1)C1CC1	0.4
CN(C)c1nc2c(Br)c(Br)c(Br)c(Br)c2[nH]1	0.4
COc1cc2ncnc(Nc3ccc(NC(=O)c4ccccc4)cc3)c2cc1OC	0.4
CN(C)CCCn1cc(C2=C(c3c[nH]c4ccccc34)C(=O)NC2=O)c2ccccc21 [Bisindolylmaleimide I]	2.9

====

Form field: Melting temperature (Tm) shift (one value per entry).
experimental.system: FAK2 Catalytic Domain (Homo sapiens, UniProt Q14289)
Construct: For all of them, we expressed and purified the catalytic domain separately; His-tag; made in house; host or cells: Escherichia coli
Sequence (Q14289 425-683 limits assumed): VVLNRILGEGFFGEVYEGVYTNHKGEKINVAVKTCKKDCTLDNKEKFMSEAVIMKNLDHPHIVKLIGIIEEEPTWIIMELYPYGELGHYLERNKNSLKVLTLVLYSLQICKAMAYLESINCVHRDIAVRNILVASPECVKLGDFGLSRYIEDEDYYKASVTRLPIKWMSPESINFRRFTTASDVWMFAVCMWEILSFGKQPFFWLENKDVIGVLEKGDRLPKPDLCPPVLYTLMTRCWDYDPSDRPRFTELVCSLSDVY
method.notes: Differential Scanning Fluorimetry (DSF) Tm shift
Assay type: binding
condition.description: 2 µM protein, 10 µM inhibitor, average of 3 experiments, each in duplicate

compound	experimental.system	Melting temperature (Tm) shift [degrees Celcius]
Cc1cc(C=C2C(=O)C=CC2=O)cc(C)c1O [TX-1918]	FAK2 Catalytic Domain (Homo sapiens, UniProt Q14289)	0.5
CS(=O)(=O)O.Cn1cc(C2=C(c3cn(CCCSC(=N)N)c4ccccc34)C(=O)NC2=O)c2ccccc21 [Ro-31-8220]	FAK2 Catalytic Domain (Homo sapiens, UniProt Q14289)	0.5
N#Cc1cnc2cnc(NCc3cccnc3)cc2c1Nc1ccc(F)c(Cl)c1 [Tpl2 Kinase Inhibitor]	FAK2 Catalytic Domain (Homo sapiens, UniProt Q14289)	0.5

====

Parameter: Melting temperature (Tm) shift. Scope: all listed entries.
experimental.system: STK3 Catalytic Domain (Homo sapiens)
Construct: For all of them, we expressed and purified the catalytic domain separately; His-tag; made in house; host or cells: Escherichia coli
Sequence (Q13188 27-278 limits assumed): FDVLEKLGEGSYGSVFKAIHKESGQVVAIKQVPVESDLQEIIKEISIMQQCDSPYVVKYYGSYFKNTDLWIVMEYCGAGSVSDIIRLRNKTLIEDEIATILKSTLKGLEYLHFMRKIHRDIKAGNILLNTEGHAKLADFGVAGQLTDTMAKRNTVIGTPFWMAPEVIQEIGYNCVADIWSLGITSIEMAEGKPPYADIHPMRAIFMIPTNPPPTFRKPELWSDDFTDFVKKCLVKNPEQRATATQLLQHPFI
method.notes: Differential Scanning Fluorimetry (DSF) Tm shift
Assay type: binding
condition.description: 2 µM protein, 10 µM inhibitor, average of 3 experiments, each in duplicate
parameter: Melting temperature (Tm) shift

molecule	endpoint.value
N#CC(c1ccnc(NCCc2cccnc2)n1)c1nc2ccccc2s1 (stereo not shown)	0.2 degrees Celcius
O=C(c1cc2cc(O)ccc2[nH]1)c1cc2cc(O)ccc2[nH]1	2.3 degrees Celcius
CC#CC(=O)Nc1cc2c(Nc3ccc(F)c(Cl)c3)ncnc2cn1	0.2 degrees Celcius
CN1C(=O)C(=C2Nc3ccccc3C2=NO)c2ccc(Br)cc21 [GSK-3 Inhibitor IX, Control, MeBIO]	0.1 degrees Celcius
N#CCCc1ccc2c(c1)-c1[nH]c3ccc([N+](=O)[O-])cc3c1CC(=O)N2	1.7 degrees Celcius
CN[C@@H]1C[C@H]2O[C@@](C)([C@@H]1OC)n1c3ccccc3c3c4c(c5c6ccccc6n2c5c31)C(=O)N[C@@H]4O	7.6 degrees Celcius
O=C1NC(=O)c2c1c1c3ccccc3n3c1c1c2c2ccccc2n1C1CCC3O1	14.2 degrees Celcius
O=C(Nc1cccc(Nc2nccc(Nc3cccc(C(F)(F)F)c3)n2)c1)C1CC1	0.1 degrees Celcius
O=C1NC(=O)C(c2cn(CCCn3ccnc3)c3ccccc23)=C1Nc1ccccc1	0.3 degrees Celcius
Nc1cccc(-c2cc3c(Oc4cccc(O)c4)ncnc3[nH]2)c1	0.3 degrees Celcius
NC(=O)Nc1sc(-c2ccc(F)cc2)cc1C(N)=O	2.8 degrees Celcius
O=C1NC(=O)C(=Cc2ccc(-c3ccc(F)cc3O)o2)S1	0.3 degrees Celcius
COc1cc2ncnc(Nc3ccc(Oc4ccccc4)cc3)c2cc1OC	0.3 degrees Celcius
Cl.Cl.O=S(=O)(NCCNC/C=C/c1ccc(Br)cc1)c1cccc2cnccc12 [H-89, Dihydrochloride]	0.0 degrees Celcius
O=C1Nc2ccccc2C1=C1Nc2ccccc2C1=NOCCC(O)CO (stereo not shown)	5.2 degrees Celcius
O=C1Nc2ccc(I)cc2/C1=C1/Nc2ccccc2/C1=N\O	1.2 degrees Celcius
Cc1ccc([N+](=O)[O-])cc1S(=O)(=O)N(C)N=Cc1cnc2ccc(Br)cn12.Cl.O.O	2.7 degrees Celcius
CN(C)CCCn1cc(C2=C(c3c[nH]c4ccccc34)C(=O)NC2=O)c2ccccc21 [Bisindolylmaleimide I]	1.0 degrees Celcius
CS(=O)(=O)O.Cn1cc(C2=C(c3cn(CCCSC(=N)N)c4ccccc34)C(=O)NC2=O)c2ccccc21	1.8 degrees Celcius
COc1cc2ncnc(Nc3ccc(Cl)cc3Cl)c2cc1OC	0.3 degrees Celcius
Cl.Cl.NCCNc1ncc(C(N)=O)c(Nc2cccc(C(F)(F)F)c2)n1	1.6 degrees Celcius
O=c1c(O)c(-c2ccc(O)c(O)c2)oc2cc(O)c(O)c(O)c12	0.2 degrees Celcius
O=C1NC(=O)C(c2c[nH]c3ccccc23)=C1c1c[nH]c2ccccc12 [Bisindolylmaleimide IV]	0.9 degrees Celcius
Cc1[nH]c(/C=C2\C(=O)Nc3ccc(S(=O)(=O)N(C)c4cccc(Cl)c4)cc32)c(C)c1C(=O)N1CCN(C)CC1	0.7 degrees Celcius
O=C1NC(=O)C(=Cc2ccc3c(c2)OCO3)S1	0.2 degrees Celcius
Brc1c(Br)c(Br)c2n[nH]nc2c1Br	1.1 degrees Celcius
O=C1NC(=O)c2c1c1c3ccccc3[nH]c1n1cncc21 [Isogranulatimide]	2.6 degrees Celcius
O=C1NC(=O)C(=Cc2cccc(C(F)(F)F)c2)S1	0.2 degrees Celcius

====

experimental.system: SRC Catalytic Domain (Homo sapiens)
Sequence (P12931 270-523 limits assumed): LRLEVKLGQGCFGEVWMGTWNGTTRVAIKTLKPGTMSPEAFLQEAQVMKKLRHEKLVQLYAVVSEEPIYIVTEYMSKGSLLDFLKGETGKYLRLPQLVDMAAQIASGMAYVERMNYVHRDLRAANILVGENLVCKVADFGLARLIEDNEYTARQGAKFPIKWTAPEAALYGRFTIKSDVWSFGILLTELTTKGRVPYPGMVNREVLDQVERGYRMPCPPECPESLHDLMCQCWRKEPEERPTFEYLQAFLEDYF
method.notes: Differential Scanning Fluorimetry (DSF) Tm shift
Assay type: binding
Parameters: For all of them, we expressed and purified the catalytic domain separately; His-tag; made in house; host or cells: Escherichia coli
condition.description: 2 µM protein, 10 µM inhibitor, average of 3 experiments, each in duplicate
Melting temperature (Tm) shift of 0.1 degrees Celcius or higher: TRUE. Under 0.1 degrees Celcius: FALSE.

cpd.smiles	experimental.system	label.class
CCN(CC)CCNC(=O)c1c(C)[nH]c(/C=C2\C(=O)Nc3ccc(Cl)cc32)c1C	SRC Catalytic Domain (Homo sapiens)	TRUE
O=C1Cc2c([nH]c3ccc(Br)cc23)-c2ccccc2N1	SRC Catalytic Domain (Homo sapiens)	TRUE
O=C(c1cc2cc(O)ccc2[nH]1)c1cc2cc(O)ccc2[nH]1	SRC Catalytic Domain (Homo sapiens)	TRUE
N#Cc1cnc2cnc(NCc3cccnc3)cc2c1Nc1ccc(F)c(Cl)c1	SRC Catalytic Domain (Homo sapiens)	TRUE
O=C1NC(=O)C(=Cc2ccc(-c3ccc(F)cc3O)o2)S1	SRC Catalytic Domain (Homo sapiens)	FALSE
NC(=O)Nc1cc(-c2ccccc2)sc1C(N)=O	SRC Catalytic Domain (Homo sapiens)	TRUE

====

experimental.system: CDK2 + Cyclin E (Homo sapiens, UniProt P24941)
Construct: CDK2 (P24941); 1–299; His-tag; made in house; host or cells: Escherichia coli
method.notes: Differential Scanning Fluorimetry (DSF) Tm shift
Type: binding
condition.description: CDK2 + Cyclin E; 2 µM protein, 10 µM inhibitor; average of 3 experiments, each in duplicate

compound	experimental.system	Melting temperature (Tm) shift
N#Cc1cnc2cnc(NCc3cccnc3)cc2c1Nc1ccc(F)c(Cl)c1 [Tpl2 Kinase Inhibitor]	CDK2 + Cyclin E (Homo sapiens, UniProt P24941)	0.5 degrees Celcius
CN(C)CCCn1cc(C2=C(c3c[nH]c4ccccc34)C(=O)NC2=O)c2ccccc21 [Bisindolylmaleimide I]	CDK2 + Cyclin E (Homo sapiens, UniProt P24941)	0.9 degrees Celcius
NC(=O)Nc1sc(-c2ccc(F)cc2)cc1C(N)=O [IKK-2 Inhibitor IV]	CDK2 + Cyclin E (Homo sapiens, UniProt P24941)	0.4 degrees Celcius
O=C1NC(=O)C(=Cc2ccc3c(c2)OCO3)S1 [PI 3-Kγ Inhibitor VII]	CDK2 + Cyclin E (Homo sapiens, UniProt P24941)	0.1 degrees Celcius
CC(C)c1nn(-c2c(Cl)cccc2Cl)c2nc(Cc3ccc(OCCO)cc3)[nH]c(=O)c12 [Cdk/Crk Inhibitor]	CDK2 + Cyclin E (Homo sapiens, UniProt P24941)	5.5 degrees Celcius
CCN1/C(=C/C(C)=O)Sc2ccc(OC)cc21 [Cdc2-Like Kinase Inhibitor, TG003]	CDK2 + Cyclin E (Homo sapiens, UniProt P24941)	0.0 degrees Celcius
CCN(CC)C(=O)c1ccc(Nc2nc(OCC3CCCCC3)c3[nH]cnc3n2)cc1 [Cdk2 Inhibitor IV, NU6140]	CDK2 + Cyclin E (Homo sapiens, UniProt P24941)	0.2 degrees Celcius
NC(=O)Nc1sc(-c2ccccc2)cc1C(N)=O [IKK-2 Inhibitor VI]	CDK2 + Cyclin E (Homo sapiens, UniProt P24941)	0.2 degrees Celcius
COc1ccc2c(c1)c(C1=C(c3c[nH]c4ccccc34)C(=O)NC1=O)cn2CCCN(C)C [Gö 6983]	CDK2 + Cyclin E (Homo sapiens, UniProt P24941)	0.1 degrees Celcius
O=C1NC(=O)c2c1c1c3ccccc3[nH]c1n1cncc21 [Isogranulatimide]	CDK2 + Cyclin E (Homo sapiens, UniProt P24941)	0.2 degrees Celcius
CC(C)(C)c1nc2c3cc[nH]c(=O)c3c3cc(F)ccc3c2[nH]1 [JAK Inhibitor I]	CDK2 + Cyclin E (Homo sapiens, UniProt P24941)	0.0 degrees Celcius
O=C(c1cc2cc(O)ccc2[nH]1)c1cc2cc(O)ccc2[nH]1 [Flt-3 Inhibitor II]	CDK2 + Cyclin E (Homo sapiens, UniProt P24941)	0.2 degrees Celcius
